system: SW-620 colon; assay: NCI tumour cell line growth inhibition, 48 h
Field: TGI. Provide a value for each of the compounds that follow.

Please review the following examples before continuing.
INSERT INTO assay_data (compound, observed_result) VALUES
  ('CC(C)(C)c1ccc2c(c1)OP1(Oc3cccc4cccnc34)(O2)Oc2ccc(C(C)(C)C)cc2O1', '> 31.8 µM'),
  ('Cc1ccc(N=Nc2c(C)nn(-c3ccccc3)c2C)c(Br)c1', '> 100 µM');

Enquiry: GET /values?readout=TGI&item= CCOC(=O)CCC(C(=O)OCC)n1nc2ccc(Nc3c(C)[n+]([O-])c4ccc(Cl)cc4[n+]3[O-])cc2n1 (stereo not drawn)
Return: > 100 µM

---

system: SK-MEL-2 melanoma; assay: NCI tumour cell line growth inhibition, 48 h; in the data active means GI50 below about 0.43 µM; inactive means the rest
Choose one outcome from this list and give only that: active, inactive

INSERT INTO results (molecule, label_value) VALUES
  ('CCC(=O)OCC1OC(n2cnc3c(=S)nc(N)[nH]c32)C(OC(=O)CC)C1OC(=O)CC (stereo not given)', 'inactive'),
  ('C=C1C(O)C2C(=C(CC(C)C)C13CC3)C(=O)C(C)(C)C2O (stereo not given)', 'inactive'),
  ('COc1cc(C(=O)/C=C/c2c(-c3cccs3)nc3sccn23)cc(OC)c1OC', 'active'),
  ('C=C(C)[C@@H]1/C=C(/C(C)C)CC[C@@]2(C)OC2CC[C@H](C)CC1=O (stereo not given in full)', 'inactive');

Could you now look at the following molecule, please?
Enquiry: For `NCCCNc1nc2ccccc2c2c(=O)c3cccc(F)c3sc12` , what call appears in the results of this test?
Return: inactive

---

Field: TGI. Provide a value for each of the molecules that follow.
system: OVCAR-4 ovarian; assay: NCI tumour cell line growth inhibition, 48 h

Please review the following examples before continuing.
INSERT INTO assay_data (molecule, observed_result) VALUES
  ('CN(C)/C=N/S(=O)(=O)c1nn2c(C=O)c(-c3ccccc3)nc2s1', '> 89.9 µM'),
  ('Clc1ccc(N=C2c3ccccc3CN2c2ccc(Cl)cc2)cc1', '> 100 µM');

// batch mode: one TGI value per listed entry
1. COc1ccc(C(c2ccc(OC)cc2)N2C(=O)CCC2C(=O)O)cc1 (stereo unspecified)
2. N#CC1(C#N)C(c2ccc(C3C(C#N)(C#N)C3(C#N)C#N)cc2)C1(C#N)C#N
3. COC(=O)/C(C#N)=C1\CCC(OC)N1 (stereo unspecified)
4. CCOC(=O)/C=C1/Oc2ccccc2C1(C)O (stereo unspecified)

Return:
> 100 µM
> 100 µM
> 100 µM
> 100 µM

---

Field: TGI. Provide a value for each of the molecules that follow.
tested on: NCI-H226 lung; experiment: NCI tumour cell line growth inhibition, 48 h

INSERT INTO measurements (molecule, target_or_system, observed_result) VALUES
  ('CN(C)C1C(CO)OC(n2cnc3c(N)ncnc32)C1O (stereo not drawn)', 'NCI-H226 lung', '> 100 µM'),
  ('CCOC(=O)C1=C(C#N)S(=O)(=O)c2c(oc(C)c2C)N1', 'NCI-H226 lung', '> 100 µM'),
  ('NCCC1([N+](=O)[O-])C=CN=CC1 (stereo not drawn)', 'NCI-H226 lung', '> 100 µM'),
  ('C#CCCOC(=O)CC1=C(C)/C(=C/c2ccc(S(C)=O)cc2)c2ccc(F)cc21 (stereo not drawn)', 'NCI-H226 lung', '43.3 µM');

// batch mode: one TGI value per listed entry
1. COc1cccc(-c2nnc3c(-c4ccccc4)nc4ccccc4n23)c1
2. COc1cc2c3c(c1Oc1nnnn1-c1ccccc1)-c1c(ccc4c1OCO4)C[C@H]3N(C)CC2
3. O=C(CCC(=O)Nc1ccc(Cl)c(Cl)c1)CC(=O)c1ccc(Cl)cc1
4. CN(C)c1ccc(C2C(Cl)C(=O)N2NC(=O)c2c(Cl)c(Cl)c(Cl)c(Cl)c2-c2nc3ccccc3[nH]2)cc1 (stereo not drawn)
5. CC1(C)C(=NNC(=S)NN)C(C)(C)C1=NNC(=S)NN
6. O=S1(=O)OCCOS(=O)(=O)C1(I)I

Return:
1. > 100 µM
2. > 100 µM
3. > 100 µM
4. 69.7 µM
5. > 100 µM
6. 29.7 µM

// batch mode: one TGI value per listed entry
1. CCCCN(CC)C(=O)C1=C(C)NC(C)=C(C(=O)N(CC)CCCC)C1
2. CC(C)(C)OC(=O)C1=C(O)C(C(=O)OC(C)(C)C)C23CCCCC12C(C(=O)OC(C)(C)C)C(O)=C3C(=O)OC(C)(C)C (stereo not drawn)

Return:
["> 100 µM", "> 100 µM"]

// batch mode: one TGI value per listed entry
1. Nc1cnc(Nc2cccc3ccccc23)o1
2. COC(=O)CCCC(=O)C1=Nc2ccccc2CN(c2ccc(Cl)cc2)N1

Return:
1: > 10 µM; 2: > 100 µM

// batch mode: one TGI value per listed entry
1. O=C(C(=O)c1cc(-c2ccccc2)nc2ccc3ccccc3c12)c1ccccc1
2. CC1COC(c2cn[nH]c2C(N)=O)C1O (stereo not drawn)
3. Cc1ccc(S(=O)(=O)OCC23CCC(C2)C2CC23)cc1 (stereo not drawn)
4. COc1cc(/C=C/[N+](=O)[O-])c([N+](=O)[O-])cc1OC

Return:
["> 100 µM", "> 100 µM", "> 100 µM", "7.68 µM"]
